# assay-notes: Plasma pharmacokinetics after single oral dose of Δ8-THCV in MCT oil (LC-MS/MS, non-compartmental analysis)
# Assay type: in vivo, human
# test-settings: human, plasma, oral, 100 mg, 6 h; 100 mg Δ8-THCV dose; Mean (SD, %CV)
Lab note: compare concentration at 6 h with 2 ng/mL, writing fulfilled if less and not fulfilled if equal or more.

A selection of reference data follows.
- molecule: "CCCc1cc(O)c2c(c1)OC(C)(C)[C@@H]1CC=C(C)C[C@@H]21 [Δ8-THCV, Δ8-tetrahydrocannabivarin]"
  classification: "not fulfilled"
- molecule: "CCCCCc1cc(O)c2c(c1)OC(C)(C)[C@@H]1CC=C(C(=O)O)CC21 (single isomer, unassigned; (+)) [Δ8-THC-COOH, (+)-11-nor-Δ8-THC-9-carboxylic acid]"
  classification: "fulfilled"
- molecule: "CCCc1cc(O)c2c(c1)OC(C)(C)[C@@H]1CC=C(C(=O)O)C[C@@H]21 [Δ8-THCV-COOH, 11-nor-9-carboxy-Δ8-THCV]"
  classification: "not fulfilled"
- molecule: "CCCc1cc(O)c2c(c1)OC(C)(C)[C@@H]1CCC(C(=O)O)=C[C@@H]21 [Δ9-THCV-COOH, 11-nor-9-carboxy-Δ9-THCV]"
  classification: "not fulfilled"
- molecule: "CCCc1cc(O)c2c(c1)OC(C)(C)[C@@H]1CCC(C)=C[C@@H]21 [Δ9-THCV, Δ9-tetrahydrocannabivarin]"
  classification: "fulfilled"

Enquiry: Just wondering, is concentration at 6 h of CCCc1cc(O)c2c(c1)OC(C)(C)[C@@H]1CC=C(CO)C[C@@H]21 (racemic) [11-OH-Δ8-THCV, (±)-11-hydroxy-Δ8-THCV] below 2 ng/mL?
Return: not fulfilled

These measurements were taken from paper PMC11676667.
